Test: MLM, hepatic metabolic stability
Assay type: in vitro ADME
Settings: mouse hepatic microsome, amount at 30 minutes compared with 0 minutes
parameter.measured: MLM (%)

| compound | observed.result |
| --- | --- |
| C=CCN1CC(=O)N2[C@@H](Cc3ccc(O)cc3)C(=O)N(Cc3cccc4c(-c5ccc(NC(=O)NCc6ccccc6)nc5)cn(C)c34)C[C@@H]2N1C(=O)NCc1ccccc1 | 68.5% |
| C=CCN1CC(=O)N2[C@@H](Cc3ccc(O)cc3)C(=O)N(Cc3cccc4c(-c5ccc(NC(=O)Nc6ccc(OC)nc6)cc5)cn(C)c34)C[C@@H]2N1C(=O)NCc1ccccc1 [Compound B] | 65% |
| C=CCN1CC(=O)N2[C@@H](Cc3ccc(O)cc3)C(=O)N(Cc3cccc4c(-c5ccc(NC(=S)NC(=O)c6ccccc6)nc5)cn(C)c34)C[C@@H]2N1C(=O)NCc1ccccc1 | 74% |
| C=CCN1CC(=O)N2[C@@H](Cc3ccc(O)cc3)C(=O)N(Cc3cccc4c(C(=O)Nc5ccc(N6CCCCC6)nc5)cn(C)c34)C[C@@H]2N1C(=O)NCc1ccccc1 | 34.9% |
| C=CCN1CC(=O)N2[C@@H](Cc3ccc(O)cc3)C(=O)N(Cc3cccc4c(-c5ccc(NC(=O)Nc6ccccc6)nc5)cn(C)c34)C[C@@H]2N1C(=O)NCc1ccccc1 [Compound D-85] | 64.3% |
| C=CCN1CC(=O)N2[C@@H](Cc3ccc(O)cc3)C(=O)N(Cc3cccc4c(-c5ccc(NC(=O)Nc6ccccc6)nc5)cn(C)c34)C[C@@H]2N1C(=O)NCc1ccccc1 [Compound C] | 64% |
| C=CCN1CC(=O)N2[C@@H](Cc3ccc(O)cc3)C(=O)N(Cc3cccc4c(C(=O)NCCCC(=O)O)cn(C)c34)C[C@@H]2N1C(=O)NCc1ccccc1 | 84.2% |
| C=CCN1CC(=O)N2C(Cc3ccc(O)cc3)C(=O)N(Cc3cccc4c(C(=O)Nc5ccc(N6CCN(c7ccc(C(F)(F)F)cc7)CC6)nc5)cn(C)c34)CC2N1C(=O)NCc1ccccc1 (stereo not shown) | 85.1% |
| C=CCN1CC(=O)N2[C@@H](Cc3ccc(O)cc3)C(=O)N(Cc3cccc4c(C(=O)N5CCN(CCCN(C)C)CC5)cn(C)c34)C[C@@H]2N1C(=O)NCc1ccccc1 | 89.1% |
| C=CCN1CC(=O)N2[C@@H](Cc3ccc(O)cc3)C(=O)N(Cc3cccc4c(C(=O)N5CCN(CC6CCNCC6)CC5)cn(C)c34)C[C@@H]2N1C(=O)NCc1ccccc1 | 73.8% |

---

Items are presented alongside their recorded IC50.
Biological target: cDNA-expressed human hepatic CYP3A4 (Homo sapiens (Human), UniProt P08684)
Sequence (P08684 whole entry): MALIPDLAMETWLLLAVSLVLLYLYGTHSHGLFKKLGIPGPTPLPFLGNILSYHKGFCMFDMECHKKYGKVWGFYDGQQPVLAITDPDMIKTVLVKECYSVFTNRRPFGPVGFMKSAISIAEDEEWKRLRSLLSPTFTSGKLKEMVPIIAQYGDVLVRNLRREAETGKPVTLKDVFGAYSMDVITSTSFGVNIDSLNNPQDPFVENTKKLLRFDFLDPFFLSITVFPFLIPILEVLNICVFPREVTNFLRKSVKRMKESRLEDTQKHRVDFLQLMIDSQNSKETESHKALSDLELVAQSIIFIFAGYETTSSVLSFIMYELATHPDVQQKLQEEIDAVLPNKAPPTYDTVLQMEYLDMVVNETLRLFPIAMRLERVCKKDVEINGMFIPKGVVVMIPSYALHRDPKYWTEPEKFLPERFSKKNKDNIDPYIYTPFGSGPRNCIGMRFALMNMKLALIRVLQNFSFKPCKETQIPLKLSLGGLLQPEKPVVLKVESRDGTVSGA
Test: Measurement of CYP (IC50 of P450 CYP3A4), BFC substrate
Format: in vitro ADME
Conditions: 20 minutes
parameter.measured: IC50 (µM)

| molecule | measurement.target | parameter.measured | readout.qualifier | observed.result |
| --- | --- | --- | --- | --- |
| C=CCN1CC(=O)N2[C@@H](Cc3ccc(O)cc3)C(=O)N(Cc3cccc4c(C(=O)NCc5ccc(N(C)C)nc5)cn(C)c34)C[C@@H]2N1C(=O)NCc1ccccc1 | cDNA-expressed human hepatic CYP3A4 (Homo sapiens (Human), UniProt P08684) | IC50 | = | 2.05 |
| C=CCN1CC(=O)N2[C@@H](Cc3ccc(O)cc3)C(=O)N(Cc3cccc4c(-c5ccc(C(=O)Nc6ccc(N)cc6)cc5)cn(C)c34)C[C@@H]2N1C(=O)NCc1ccccc1 | cDNA-expressed human hepatic CYP3A4 (Homo sapiens (Human), UniProt P08684) | IC50 | = | 2.42 |
| C=CCN1CC(=O)N2C(CN(Cc3cccc4c(C(=O)Nc5ccc(NCC(O)CO)nc5)cn(C)c34)C(=O)[C@@H]2Cc2ccc(O)cc2)N1C(=O)NCc1ccccc1 (some centres unmarked) | cDNA-expressed human hepatic CYP3A4 (Homo sapiens (Human), UniProt P08684) | IC50 | = | 2.55 |
| C=CCN1CC(=O)N2[C@@H](Cc3ccc(O)cc3)C(=O)N(Cc3cccc4c(C(=O)N5CCCN(C)CC5)cn(C)c34)C[C@@H]2N1C(=O)NCc1ccccc1 | cDNA-expressed human hepatic CYP3A4 (Homo sapiens (Human), UniProt P08684) | IC50 | = | 3.63 |
| C=CCN1CC(=O)N2[C@@H](Cc3ccc(O)cc3)C(=O)N(Cc3cccc4c(-c5cccc(C(=O)Nc6ccc(N7CCN(c8ccc(OC)cc8)CC7)cc6)c5)cn(C)c34)C[C@@H]2N1C(=O)NCc1ccccc1 | cDNA-expressed human hepatic CYP3A4 (Homo sapiens (Human), UniProt P08684) | IC50 | > | 25 |
| C=CCN1CC(=O)N2[C@@H](Cc3ccc(O)cc3)C(=O)N(Cc3cccc4c(-c5ccc(NC(=O)Nc6cnccn6)cc5)cn(C)c34)C[C@@H]2N1C(=O)NCc1ccccc1 | cDNA-expressed human hepatic CYP3A4 (Homo sapiens (Human), UniProt P08684) | IC50 | = | 4.61 |
| C=CCN1CC(=O)N2[C@@H](Cc3ccc(O)cc3)C(=O)N(Cc3cccc4c(C(=O)N5CCC(N6CCOCC6)CC5)cn(C)c34)C[C@@H]2N1C(=O)NCc1ccccc1 | cDNA-expressed human hepatic CYP3A4 (Homo sapiens (Human), UniProt P08684) | IC50 | = | 2.11 |
| C=CCN1CC(=O)N2[C@@H](Cc3ccc(O)cc3)C(=O)N(Cc3cccc4c(C(=O)Nc5ccc(N(C)CCO)nc5)cn(C)c34)C[C@@H]2N1C(=O)NCc1ccccc1 | cDNA-expressed human hepatic CYP3A4 (Homo sapiens (Human), UniProt P08684) | IC50 | = | 3.45 |
| C=CCN1CC(=O)N2[C@@H](Cc3ccc(O)cc3)C(=O)N(Cc3cccc4c(C(=O)N5CCC(OC)CC5)cn(C)c34)C[C@@H]2N1C(=O)NCc1ccccc1 | cDNA-expressed human hepatic CYP3A4 (Homo sapiens (Human), UniProt P08684) | IC50 | = | 3.3 |
| C=CCN1CC(=O)N2[C@@H](Cc3ccc(O)cc3)C(=O)N(Cc3cccc4c(C(=O)NC5CCN(C(=O)c6ccc(N(C)C)cc6)CC5)cn(C)c34)C[C@@H]2N1C(=O)NCc1ccccc1 | cDNA-expressed human hepatic CYP3A4 (Homo sapiens (Human), UniProt P08684) | IC50 | = | 6.15 |
| C=CCN1CC(=O)N2[C@@H](Cc3ccc(O)cc3)C(=O)N(Cc3cccc4c(C(=O)NCCCN(C)C)cn(C)c34)C[C@@H]2N1C(=O)NCc1ccccc1 | cDNA-expressed human hepatic CYP3A4 (Homo sapiens (Human), UniProt P08684) | IC50 | = | 17.9 |
| C=CCN1CC(=O)N2[C@@H](Cc3ccc(O)cc3)C(=O)N(Cc3cccc4c(-c5cnc(N(C)C)nc5)cn(C)c34)C[C@@H]2N1C(=O)NCc1ccccc1 | cDNA-expressed human hepatic CYP3A4 (Homo sapiens (Human), UniProt P08684) | IC50 | = | 6.41 |
| C=CCN1CC(=O)N2[C@@H](Cc3ccc(O)cc3)C(=O)N(Cc3cccc4c(C(=O)N5CCC(C(=O)OCC)CC5)cn(C)c34)C[C@@H]2N1C(=O)NCc1ccccc1 | cDNA-expressed human hepatic CYP3A4 (Homo sapiens (Human), UniProt P08684) | IC50 | = | 3.86 |
| C=CCN1CC(=O)N2[C@@H](Cc3ccc(O)cc3)C(=O)N(Cc3cccc4c(-c5ccc(NC(=O)c6ccccc6)cc5)cn(C)c34)C[C@@H]2N1C(=O)NCc1ccccc1 | cDNA-expressed human hepatic CYP3A4 (Homo sapiens (Human), UniProt P08684) | IC50 | > | 25 |
| C=CCN1CC(=O)N2[C@@H](Cc3ccc(O)cc3)C(=O)N(Cc3cccc4c(C(=O)N(C)C)cn(C)c34)C[C@@H]2N1C(=O)NCc1ccccc1 | cDNA-expressed human hepatic CYP3A4 (Homo sapiens (Human), UniProt P08684) | IC50 | = | 3.16 |
| C=CCN1CC(=O)N2[C@@H](Cc3ccc(O)cc3)C(=O)N(Cc3cccc4c(C(=O)N5CCC(NC(=O)CCO)CC5)cn(C)c34)C[C@@H]2N1C(=O)NCc1ccccc1 | cDNA-expressed human hepatic CYP3A4 (Homo sapiens (Human), UniProt P08684) | IC50 | = | 7.65 |
| C=CCN1CC(=O)N2[C@@H](Cc3ccc(O)cc3)C(=O)N(Cc3cccc4c(C(=O)NN5CCCC5)cn(C)c34)C[C@@H]2N1C(=O)NCc1ccccc1 | cDNA-expressed human hepatic CYP3A4 (Homo sapiens (Human), UniProt P08684) | IC50 | = | 17.4 |
| C=CCN1CC(=O)N2[C@@H](Cc3ccc(O)cc3)C(=O)N(Cc3cccc4c(-c5ccc(C(=O)Nc6ccc(OC)cc6)cc5)cn(C)c34)C[C@@H]2N1C(=O)NCc1ccccc1 | cDNA-expressed human hepatic CYP3A4 (Homo sapiens (Human), UniProt P08684) | IC50 | = | 19.5 |
| C=CCN1CC(=O)N2[C@@H](Cc3ccc(O)cc3)C(=O)N(Cc3cccc4c(C(=O)N5CCC(NC(=O)c6ccc(N7CCN(C)CC7)cc6)CC5)cn(C)c34)C[C@@H]2N1C(=O)NCc1ccccc1 | cDNA-expressed human hepatic CYP3A4 (Homo sapiens (Human), UniProt P08684) | IC50 | = | 6.02 |
| C=CCN1CC(=O)N2[C@@H](Cc3ccc(O)cc3)C(=O)N(Cc3cccc4c(C(=O)N5CC(N6CCC(OC)CC6)C5)cn(C)c34)C[C@@H]2N1C(=O)NCc1ccccc1 | cDNA-expressed human hepatic CYP3A4 (Homo sapiens (Human), UniProt P08684) | IC50 | = | 11.8 |
